Values compiled from the MegaScale stability set (Tsuboyama et al. 2023).

Consider the following variants; for each one, report its folding stability dG.
B1: r16_88_TrROS_Hall (parent)
chain: EVIELKIKFKTPEQREKLKEIAKKLNAEVVEEKDGEVIIRFKTPEQAERALKEAEKLGAEVEL

variants of: B1; test: folding stability dG (cDNA display proteolysis); higher = more stable; conditions: PBS, room temperature
Give your result in kcal/mol as a bare value.

Q: Give its folding stability dG value. Item: E13G
Result: 4.51

Q: Give its folding stability dG value. Item: E55T
Result: 4.31

Q: Give its folding stability dG value. Item: R49C
Result: 4.42

Q: Give its folding stability dG value. Item: I21R
Result: 3.62

Q: Give its folding stability dG value. Item: K56N
Result: 4.44

Q: Give its folding stability dG value. Item: I38T
Result: 4.44

Q: Give its folding stability dG value. Item: R15F
Result: 4.35

Q: Give its folding stability dG value. Item: Q46F
Result: 4.43

Q: Give its folding stability dG value. Item: V30C
Result: 4.38

Q: Give its folding stability dG value. Item: A47G
Result: 4.28

Q: Give its folding stability dG value. Item: N26M
Result: 4.53

Q: Give its folding stability dG value. Item: E36V
Result: 4.36

Q: Give its folding stability dG value. Item: A59V
Result: 4.65

Q: Give its folding stability dG value. Item: A47L
Result: 4.65

Q: Give its folding stability dG value. Item: A54N
Result: 3.65

Q: Give its folding stability dG value. Item: Q46R
Result: 4

Q: Give its folding stability dG value. Item: E36C
Result: 4.39

Q: Give its folding stability dG value. Item: A27W
Result: 4.42

Q: Give its folding stability dG value. Item: K6W
Result: 4.94

Q: Give its folding stability dG value. Item: I39H
Result: 3.68

Q: Give its folding stability dG value. Item: I39V
Result: 4.44

Q: Give its folding stability dG value. Item: V61D
Result: 4.72

Q: Give its folding stability dG value. Item: I38D
Result: 3.82

Q: Give its folding stability dG value. Item: K24H
Result: 4.3
